Test system: Plasmodium falciparum
ASSAY_OVERVIEW: GSK_TCMDC: Inhibition of Plasmodium falciparum 3D7 in whole red blood cells, using parasite LDH activity as an index of growth. Test compounds present at 2uM
Assay type: functional
Overview of recorded Inhibition for various compounds

{"COMPOUND": "CCCN(Cc1ccc(OCC)cc1)Cc1cc(=O)c2cc(Cl)ccc2[nH]1", "ASSAYED_SYSTEM": "Plasmodium falciparum", "Inhibition": "82%"}
{"COMPOUND": "O=C(Nc1cccc(C(F)(F)F)c1)c1cccc(S(=O)(=O)NC2CCN(CC3CCCCC3)C2)c1.O=C(O)C(F)(F)F (centres undefined)", "ASSAYED_SYSTEM": "Plasmodium falciparum", "Inhibition": "100%"}
{"COMPOUND": "O=C(Nc1ccccc1)Nc1cccc(-c2ccc(-c3nc4cc(C(F)(F)F)ccc4[nH]3)cc2)c1", "ASSAYED_SYSTEM": "Plasmodium falciparum", "Inhibition": "100%"}
{"COMPOUND": "O=C(Nc1cccc(-c2cccc(-c3nc4cc(C(F)(F)F)ccc4[nH]3)c2)c1)c1ccc(=O)[nH]n1", "ASSAYED_SYSTEM": "Plasmodium falciparum", "Inhibition": "100%"}
{"COMPOUND": "COc1cc(-c2nc(-c3ccncc3)c(-c3ccc4c(c3)CCC4=NO)[nH]2)ccc1OCCN1CCN(C)CC1.Cl", "ASSAYED_SYSTEM": "Plasmodium falciparum", "Inhibition": "99%"}

Exercise: Using known records, supply Inhibition for O=C(NC1CCN(Cc2ccccc2)CC1)c1ccc(-c2nc3cc(Cl)c(Cl)cc3[nH]2)c(F)c1
Solution: 100%

Exercise: Using known records, supply Inhibition for O=C(Nc1ccc(CN2CCN(S(=O)(=O)c3ccc(Cl)s3)CC2)cc1)c1cccs1.O=C(O)C(F)(F)F
Solution: 92%

Exercise: Using known records, supply Inhibition for CN1CCN(Cc2cccc(-c3ccc4c(Nc5ccc(Oc6ccccc6)cc5)ccnc4c3)c2)CC1
Solution: 100%

Exercise: Using known records, supply Inhibition for Cn1cnnc1Sc1ccc(CN2CCOc3ccc(C4=CCCCC4)cc3C2)o1
Solution: 98%

* * *

Overview of recorded Inhibition for various compounds
System: Plasmodium falciparum
ASSAY_OVERVIEW: GSK_TCMDC: Inhibition of Plasmodium falciparum Dd2 in whole red blood cells, using parasite LDH activity as an index of growth. Test compounds present at 2uM
Format: functional
Reply numerically in %, unit not repeated.

Example compounds with recorded Inhibition:
{"COMPOUND": "COc1cc(NC(=O)c2cc([N+](=O)[O-])ccc2NC(=O)CNC2CCCC(C)C2C)cc(OC)c1 (stereo not drawn)", "EXPERIMENTAL_RESULT": 80}
{"COMPOUND": "COc1cc(Nc2ncc3c(C)nc(-c4cc5ccccc5[nH]4)n3n2)cc(OC)c1OC", "EXPERIMENTAL_RESULT": 65}
{"COMPOUND": "COc1ccc(-c2ccc(NC(=O)c3ccc(Cl)cc3)cc2)cc1CN1CCC(O)CC1.O=C(O)C(F)(F)F", "EXPERIMENTAL_RESULT": 15}
{"COMPOUND": "CC(C)NCc1cccc(-c2ccc(NS(=O)(=O)c3cccc4cccnc34)cc2)c1.O=C(O)C(F)(F)F", "EXPERIMENTAL_RESULT": 10}
{"COMPOUND": "CCCc1c(Cl)cc(CNCCCNc2nc3ccncc3[nH]2)cc1Cl", "EXPERIMENTAL_RESULT": 0}

Exercise: Using known records, supply Inhibition for Cc1cccc2nc(-c3cccc(-c4cccc(NC(=O)CC5NC(=O)c6ccccc65)c4)c3)[nH]c12 (stereo not drawn)
Solution: 49

Exercise: Using known records, supply Inhibition for Cc1cccc2nc(-c3ccc(-c4cccc(NC(=O)Nc5ccsc5)c4)cc3)[nH]c12
Solution: 24

Exercise: Using known records, supply Inhibition for C=C[C@]1(C)C[C@@H](OC(=O)c2cncn(COC)c2=O)[C@]2(C)[C@H](C)CC[C@]3(CCC(=O)[C@H]32)[C@@H](C)[C@@H]1O
Solution: 7
